Can you tell me inhibition at 50 µM for the items I'm about to list?
Target: COX-2 (purified PGHS-2) (Ovis aries, UniProt P79208)
Construct: purified PGHS-2 (COX-2) from sheep placental cotyledones; purchased Cayman Chemical Company, Ann Arbor, Mich., USA; host or cells: sheep placental cotyledons (tissue-purified)
Assay: COX-2 assay, purified enzyme, PGE2 EIA
Format: biochemical, sheep
Settings: screening concentration 50 μM
One number for each entry, in %.

A selection of reference data follows.
| compound | inhibition at 50 µM [%] |
| --- | --- |
| C=CC(C)(O)CCC1C(=C)CC(O)C2C(C)(C)CCCC12C (stereo not drawn) | 8.7 |
| CC(C)c1ccc2c(c1)CCC1C(C)(C(=O)O)CCCC21C (stereo not drawn) [Dehydroabietic acid] | -6 |

Give inhibition at 50 µM for each of the items listed below.
1. CC(C)c1ccc2c(c1)CCC1C(C)(CO)CCCC21C (stereo not drawn) [Dehydroabietinol]
2. C=CC(C)(O)CCC1C(=C)CC(OC(C)=O)C2C(C)(C)CCCC12C (stereo not drawn) [Larixyl acetate]
3. C=C[C@@]1(C)CC[C@H]2C(=CC[C@@H]3[C@]2(C)CCC[C@@]3(C)C(=O)O)C1
4. CC(C)C1=CC2=C(CC1)C1(C)CCCC(C)(C(=O)O)C1CC2 (stereo not drawn)

7.7
38.5
3.5
49.5

* * *

Target: COX-2 (purified PGHS-2) (Ovis aries, UniProt P79208)
Construct: purified PGHS-2 (COX-2) from sheep placental cotyledones; purchased Cayman Chemical Company, Ann Arbor, Mich., USA; host or cells: sheep placental cotyledons (tissue-purified)
Sequence (P79208 17-603): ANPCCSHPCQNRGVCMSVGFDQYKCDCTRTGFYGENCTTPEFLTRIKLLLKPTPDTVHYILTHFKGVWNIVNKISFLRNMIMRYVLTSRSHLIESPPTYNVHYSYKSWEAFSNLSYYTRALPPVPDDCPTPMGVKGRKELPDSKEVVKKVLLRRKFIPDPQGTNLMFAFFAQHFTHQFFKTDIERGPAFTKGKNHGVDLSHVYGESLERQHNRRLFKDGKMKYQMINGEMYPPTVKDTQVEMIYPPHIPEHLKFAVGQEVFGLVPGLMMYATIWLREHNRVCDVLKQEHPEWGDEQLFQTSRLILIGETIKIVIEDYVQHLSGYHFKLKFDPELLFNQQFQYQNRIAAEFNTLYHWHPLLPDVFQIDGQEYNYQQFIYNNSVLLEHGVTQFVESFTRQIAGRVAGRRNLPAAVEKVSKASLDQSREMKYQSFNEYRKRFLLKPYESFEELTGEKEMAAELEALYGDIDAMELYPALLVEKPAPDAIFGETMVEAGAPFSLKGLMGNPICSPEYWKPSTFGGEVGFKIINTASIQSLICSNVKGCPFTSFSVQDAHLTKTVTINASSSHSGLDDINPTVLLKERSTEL
Assay: COX-2 assay, purified enzyme, PGE2 EIA
Type: biochemical, sheep
Details: IC50 COX-2
Experimental: Principle: The purified enzymes COX-1 and COX-2 are incubated with a defined concentration of test sample and arachidonic acid. After stopping the enzymatic reaction by addition of formic acid and dilution, the produced PGE2 is quantified by means of a PGE2 EIA kit. […] PGE2 EIA: The concentration of PGE2, the main arachidonic acid metabolite in this reaction, is determined by a competitive PGE2 EIA kit (Assay Designs Inc., Ann Arbor, Mich., USA). […]
parameter: IC50 (µM)
Give bare numbers, in µM.

IC50 recorded for this compound, CC(C)C1=CC2=C(CC1)C1(C)CCCC(C)(C(=O)O)C1CC2 (stereo not shown) , is 57.9

* * *

Target: COX-1 (purified PGHS-1) (Ovis aries, UniProt P05979)
Construct: purified PGHS-1 (COX-1) from ram seminal vesicles; purchased Cayman Chemical Company, Ann Arbor, Mich., USA; host or cells: ram seminal vesicles (tissue-purified)
Sequence (P05979 25-600): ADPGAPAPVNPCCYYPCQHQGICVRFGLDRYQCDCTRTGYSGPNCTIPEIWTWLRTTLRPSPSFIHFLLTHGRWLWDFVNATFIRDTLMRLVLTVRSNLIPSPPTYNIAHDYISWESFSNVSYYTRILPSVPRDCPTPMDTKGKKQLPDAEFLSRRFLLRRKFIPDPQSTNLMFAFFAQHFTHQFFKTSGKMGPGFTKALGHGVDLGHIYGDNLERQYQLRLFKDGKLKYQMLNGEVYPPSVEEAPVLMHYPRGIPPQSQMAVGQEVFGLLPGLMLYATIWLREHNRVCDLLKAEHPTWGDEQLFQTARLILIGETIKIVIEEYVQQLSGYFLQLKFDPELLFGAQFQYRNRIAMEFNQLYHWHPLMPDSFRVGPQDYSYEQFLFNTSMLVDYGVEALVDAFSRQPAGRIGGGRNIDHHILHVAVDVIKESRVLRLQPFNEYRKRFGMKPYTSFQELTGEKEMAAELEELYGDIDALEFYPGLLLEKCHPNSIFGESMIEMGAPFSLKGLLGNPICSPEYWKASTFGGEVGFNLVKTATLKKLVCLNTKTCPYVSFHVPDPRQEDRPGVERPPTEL
Assay: COX-1 assay, purified enzyme, PGE2 EIA
Type: biochemical, ram
Conditions: screening concentration 50 μM
Exercise: state measured inhibition at 50 µM for each of the molecules provided.
Answers are plain numbers, in %.

Recorded results for 2 molecules are shown here.
| molecule | inhibition at 50 µM [%] |
| --- | --- |
| C=C[C@@]1(C)CC[C@H]2C(=CC[C@@H]3[C@]2(C)CCC[C@@]3(C)C(=O)O)C1 [Isopimaric acid] | 15.7 |
| CC(C)c1ccc2c(c1)CCC1C(C)(CO)CCCC21C (stereo not drawn) [Dehydroabietinol] | -1.6 |

Dear colleague, could you send me inhibition at 50 µM for each of the items below? Thanks.
1. CC(C)c1ccc2c(c1)CCC1C(C)(C(=O)O)CCCC21C (stereo not drawn) [Dehydroabietic acid]
2. C=CC(C)(O)CCC1C(=C)CC(OC(C)=O)C2C(C)(C)CCCC12C (stereo not drawn) [Larixyl acetate]
3. C=CC(C)(O)CCC1C(=C)CC(O)C2C(C)(C)CCCC12C (stereo not drawn) [Larixol]
4. CC(C)C1=CC2=C(CC1)C1(C)CCCC(C)(C(=O)O)C1CC2 (stereo not drawn) [Palustric acid]

2.9
0.2
2.1
13.5

* * *

Tested on: 5-LOX mediated LT biosynthesis
Assay: LT biosynthesis inhibition assay in activated neutrophile granulocytes, LTB4 EIA
Assay type: cell-based, human
Conditions: Homo sapiens
parameter: pIC50
One number for each entry, as −log10 of the molar value.

| compound | val |
| --- | --- |
| C=C[C@@]1(C)CC[C@H]2C(=CC[C@@H]3[C@]2(C)CCC[C@@]3(C)C(=O)O)C1 | 4.99 |

// input: 4 compounds below; output: pIC50 for each
1. C=CC(C)(O)CCC1C(=C)CC(OC(C)=O)C2C(C)(C)CCCC12C (stereo not drawn) [Larixyl acetate]
2. CC(C)C1=CC2=C(CC1)C1(C)CCCC(C)(C(=O)O)C1CC2 (stereo not drawn)
3. CC(C)c1ccc2c(c1)CCC1C(C)(C(=O)O)CCCC21C (stereo not drawn) [Dehydroabietic acid]
4. CC(C)c1ccc2c(c1)CCC1C(C)(CO)CCCC21C (stereo not drawn) [Dehydroabietinol]

1. 4.98
2. 4.75
3. 4.35
4. 4.96
